ASSAYED_SYSTEM: Protein cereblon/Bromodomain-containing protein 3 (Homo sapiens, UniProt Q15059+Q96SW2)
Sequence (Q15059 2-726 limits assumed, one chain of several): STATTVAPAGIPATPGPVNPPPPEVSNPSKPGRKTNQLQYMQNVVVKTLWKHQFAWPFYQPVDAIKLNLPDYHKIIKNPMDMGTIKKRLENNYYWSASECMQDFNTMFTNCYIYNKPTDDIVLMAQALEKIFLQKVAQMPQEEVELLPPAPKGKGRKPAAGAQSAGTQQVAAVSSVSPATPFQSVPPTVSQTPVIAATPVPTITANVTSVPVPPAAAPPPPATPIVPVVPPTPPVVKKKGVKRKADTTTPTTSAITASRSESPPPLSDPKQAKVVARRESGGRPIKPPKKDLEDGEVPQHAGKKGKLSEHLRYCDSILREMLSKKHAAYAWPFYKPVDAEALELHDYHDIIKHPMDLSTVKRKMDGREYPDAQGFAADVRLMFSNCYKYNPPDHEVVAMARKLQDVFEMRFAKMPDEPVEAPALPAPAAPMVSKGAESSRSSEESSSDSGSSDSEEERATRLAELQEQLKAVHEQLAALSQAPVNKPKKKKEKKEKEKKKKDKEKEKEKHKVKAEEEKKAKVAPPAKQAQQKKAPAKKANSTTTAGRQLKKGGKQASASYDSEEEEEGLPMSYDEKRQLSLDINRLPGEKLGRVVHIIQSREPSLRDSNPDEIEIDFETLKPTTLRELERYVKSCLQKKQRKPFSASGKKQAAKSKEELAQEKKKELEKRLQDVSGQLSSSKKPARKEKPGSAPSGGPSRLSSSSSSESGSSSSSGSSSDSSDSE
EXPERIMENTAL_SETUP: MV4-11, dose 0.1-1000 nM, time 4.0 hrs
PROPERTY: Emax (%)

Recorded Emax, per entry:
>  <MOLECULE>
Cc1nnc2n1-c1sc(C#Cc3cnn(C4(CCN5CCN(C)CC5)CN(c5cccc6c5C(=O)N(C5CCC(=O)NC5=O)C6=O)C4)c3)c(Cc3ccccc3)c1COC2 (stereo not given)

>  <Emax / %>
0

$$$$
>  <MOLECULE>
Cc1nnc2n1-c1sc(C#Cc3cnn(C)c3)c(Cc3ccccc3)c1COC2

>  <Emax / %>
0

$$$$
>  <MOLECULE>
Cc1nnc2n1-c1sc(C#Cc3cnn(C4CN(c5cccc6c5C(=O)N(C5CCC(=O)N(C)C5=O)C6=O)C4)c3)c(Cc3ccccc3)c1COC2 (stereo not given)

>  <Emax / %>
12

$$$$

a: Cc1nnc2n1-c1sc(C#Cc3cnn(C4CCN(c5cccc6c5C(=O)N(C5CCC(=O)NC5=O)C6=O)CC4)c3)c(Cc3ccccc3)c1COC2 (stereo not given)
b: Cc1nnc2n1-c1sc(C#Cc3cnn(C4CN(c5cccc6c5C(=O)N(C5CCC(=O)NC5=O)C6=O)C4)c3)c(Cc3ccccc3)c1COC2 (stereo not given)
Lab note: check whether a or b has the lower measured Emax. Reply with the label of the item you choose. b

----------
ASSAYED_SYSTEM: Protein cereblon/Bromodomain-containing protein 2 (Homo sapiens, UniProt P25440+Q96SW2)
Sequence (P25440 whole entry, looked up): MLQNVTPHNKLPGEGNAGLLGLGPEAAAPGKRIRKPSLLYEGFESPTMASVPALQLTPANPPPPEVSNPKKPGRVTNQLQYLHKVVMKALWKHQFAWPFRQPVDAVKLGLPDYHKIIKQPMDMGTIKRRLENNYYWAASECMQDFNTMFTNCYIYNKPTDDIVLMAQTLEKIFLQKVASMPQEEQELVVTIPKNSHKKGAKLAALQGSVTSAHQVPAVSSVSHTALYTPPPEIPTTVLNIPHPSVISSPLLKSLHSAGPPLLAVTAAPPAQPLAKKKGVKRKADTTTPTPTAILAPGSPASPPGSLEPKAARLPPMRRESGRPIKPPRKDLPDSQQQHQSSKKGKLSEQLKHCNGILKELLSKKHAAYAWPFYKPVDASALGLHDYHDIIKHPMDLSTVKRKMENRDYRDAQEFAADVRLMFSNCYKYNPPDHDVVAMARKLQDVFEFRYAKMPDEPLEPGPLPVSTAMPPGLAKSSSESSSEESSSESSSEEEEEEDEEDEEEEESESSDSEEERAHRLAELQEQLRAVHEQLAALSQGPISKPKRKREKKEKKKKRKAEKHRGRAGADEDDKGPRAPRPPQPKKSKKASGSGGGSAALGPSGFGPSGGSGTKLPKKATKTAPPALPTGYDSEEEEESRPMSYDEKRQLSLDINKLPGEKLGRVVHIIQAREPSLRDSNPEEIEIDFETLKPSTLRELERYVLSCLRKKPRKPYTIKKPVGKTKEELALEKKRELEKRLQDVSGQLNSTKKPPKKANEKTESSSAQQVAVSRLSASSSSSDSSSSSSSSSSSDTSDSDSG
Sequence (Q96SW2 whole entry, looked up): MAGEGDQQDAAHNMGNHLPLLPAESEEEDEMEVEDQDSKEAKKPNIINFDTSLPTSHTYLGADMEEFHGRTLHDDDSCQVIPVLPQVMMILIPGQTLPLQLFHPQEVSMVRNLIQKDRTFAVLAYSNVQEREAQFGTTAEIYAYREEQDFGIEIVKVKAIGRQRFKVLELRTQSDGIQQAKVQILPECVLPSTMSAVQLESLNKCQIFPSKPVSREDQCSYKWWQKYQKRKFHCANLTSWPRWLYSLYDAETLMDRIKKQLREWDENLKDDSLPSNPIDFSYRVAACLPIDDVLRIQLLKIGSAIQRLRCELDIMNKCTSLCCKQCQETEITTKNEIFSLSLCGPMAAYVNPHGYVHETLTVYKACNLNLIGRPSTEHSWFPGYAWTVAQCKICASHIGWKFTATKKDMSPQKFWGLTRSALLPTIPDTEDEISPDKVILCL
EXPERIMENTAL_SETUP: MV4-11, dose 0.1-1000 nM, time 4.0 hrs
PROPERTY: Emax (%)

Worked set:
>  <MOLECULE>
Cc1nnc2n1-c1sc(C#Cc3cnn(C4CN(c5cccc6c5C(=O)N(C5CCC(=O)N(C)C5=O)C6=O)C4)c3)c(Cc3ccccc3)c1COC2 (stereo not given)

>  <UNIT_ABBREV>
%

>  <Emax>
5

$$$$
>  <MOLECULE>
Cc1nnc2n1-c1sc(C#Cc3cnn(C)c3)c(Cc3ccccc3)c1COC2

>  <UNIT_ABBREV>
%

>  <Emax>
0

$$$$
>  <MOLECULE>
Cc1nnc2n1-c1sc(C#Cc3cnn(C4(CCN5CCN(C)CC5)CN(c5cccc6c5C(=O)N(C5CCC(=O)NC5=O)C6=O)C4)c3)c(Cc3ccccc3)c1COC2 (stereo not given)

>  <UNIT_ABBREV>
%

>  <Emax>
0

$$$$

I: Cc1nnc2n1-c1sc(C#Cc3cnn(C4CCN(c5cccc6c5C(=O)N(C5CCC(=O)NC5=O)C6=O)CC4)c3)c(Cc3ccccc3)c1COC2 (stereo not given)
II: Cc1nnc2n1-c1sc(C#Cc3cnn(C4CN(c5cccc6c5C(=O)N(C5CCC(=O)NC5=O)C6=O)C4)c3)c(Cc3ccccc3)c1COC2 (stereo not given)
Could you tell me which of I and II has the lower Emax reading? Let me know the label of the one you choose. II
